# credit: the Human Domainome abundance scans (Beltran et al. 2025)

B1: Calcium-binding protein 2, residues 155 to 219; numbered along this chain, Q9NPB3 (parent)
chain: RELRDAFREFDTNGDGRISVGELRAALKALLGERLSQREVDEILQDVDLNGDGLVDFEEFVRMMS

Variants of: B1
PROCEDURE DETAILS: abundance fitness (aPCA) (normalised: wild type 0, dead -1); higher = more abundant; growth selection in yeast, the domain comes from the species named
EXPERIMENTAL CONDITIONS: Homo sapiens
Kindly supply the reported abundance fitness values for the records listed here.
No unit in the answer, only the number.

Prompt: Item under review: REVRDAFREFDTNGDGRISVGELRAALKALLGERLSQREVDEILQDVDLNGDGLVDFEEFVRMMS [L3V] . Reported abundance fitness?
Response: -0.15

Prompt: Thanks! And RELRDLFREFDTNGDGRISVGELRAALKALLGERLSQREVDEILQDVDLNGDGLVDFEEFVRMMS [A6L] ?
Response: -0.008

Prompt: Thanks! And RELRDAFREFDTNGDGRISVGELRAALKALLGERLSQREVDEILQDVDLNGDGLVVFEEFVRMMS [D56V] ?
Response: 0.044

Prompt: Thanks! And RELRDAFREFDTNGDGRISVGELRAALKALLGERLSQREVDEFLQDVDLNGDGLVDFEEFVRMMS [I43F] ?
Response: -0.282

Prompt: Thanks! And RELRDAFREFDTNGDGRISVGELRAALKALLGERLSQREVDEILQDVDLNGDGLVDFEEFARMMS [V61A] ?
Response: -0.054

Prompt: Thanks! And RELRDAFREFDTNGDGRISVGELRALLKALLGERLSQREVDEILQDVDLNGDGLVDFEEFVRMMS [A26L] ?
Response: 0.073

Prompt: Thanks! And RELRDAFREFDTNGDGRISVGELRAALKALLGERLSQREVDEILQDVDLNGDGLVDFQEFVRMMS [E58Q] ?
Response: -0.102

Prompt: Thanks! And RELRDAFREFDTNGDGRISTGELRAALKALLGERLSQREVDEILQDVDLNGDGLVDFEEFVRMMS [V20T] ?
Response: -0.146

Prompt: Thanks! And RELRDAFREFDLNGDGRISVGELRAALKALLGERLSQREVDEILQDVDLNGDGLVDFEEFVRMMS [T12L] ?
Response: -0.279

Prompt: Thanks! And RELRDAFREFDTNGDGRISVGELRAALKALLGERLSQREVDEILSDVDLNGDGLVDFEEFVRMMS [Q45S] ?
Response: -0.147

Prompt: Thanks! And RELRDAFREFDCNGDGRISVGELRAALKALLGERLSQREVDEILQDVDLNGDGLVDFEEFVRMMS [T12C] ?
Response: -0.148

Prompt: Thanks! And RELRDAFREFDTNGDGRISVGELRAALKALLGERLSQREVDEILQDVDLNGDGLVDFEEFVRQMS [M63Q] ?
Response: -0.035

Prompt: Thanks! And RELRDAFREFDTNGDGRISVGELRAALKALLGERLSQREVDEILQDVDLNGDGLVDFEEFVRWMS [M63W] ?
Response: -0.003

Prompt: Thanks! And RELRDAFREFDTNGDGRISVGELRAALKALLGERLSQREVDEILQFVDLNGDGLVDFEEFVRMMS [D46F] ?
Response: -0.321

Prompt: Thanks! And RELRDAFREFDTNGDGRISVGELRAALKALLGERLSQREVDEILQDVDLNGDGTVDFEEFVRMMS [L54T] ?
Response: 0.012

Prompt: Thanks! And RELRDAFREFDTNGDGRISVGELRAALKALLGEFLSQREVDEILQDVDLNGDGLVDFEEFVRMMS [R34F] ?
Response: -0.298

Prompt: Thanks! And RELRDAFREFDTNGDGRISVGELRAALKALLGERLSQREVDEILQDVDLNADGLVDFEEFVRMMS [G51A] ?
Response: 0.062

Prompt: Thanks! And RELRDAFREFDTNGDGRISVGELRAALKALLGERLSQREVDEILQDVDLNGDGLVDFERFVRMMS [E59R] ?
Response: -0.089

Prompt: Thanks! And RELRRAFREFDTNGDGRISVGELRAALKALLGERLSQREVDEILQDVDLNGDGLVDFEEFVRMMS [D5R] ?
Response: -0.119

Prompt: Thanks! And RELRDAFREFDTNGDGRISVGELRAAMKALLGERLSQREVDEILQDVDLNGDGLVDFEEFVRMMS [L27M] ?
Response: -0.025

Prompt: Thanks! And RELRDAFREFDTNGDGSISVGELRAALKALLGERLSQREVDEILQDVDLNGDGLVDFEEFVRMMS [R17S] ?
Response: -0.087

Prompt: Thanks! And RELRDAFRDFDTNGDGRISVGELRAALKALLGERLSQREVDEILQDVDLNGDGLVDFEEFVRMMS [E9D] ?
Response: 0.003
